Value source: patent US11912693B2

- Tested Target: human sphingosine-1-phosphate receptor 1 (S1P1) (Homo sapiens (Human))
- Sequence (P21453 whole entry, looked up): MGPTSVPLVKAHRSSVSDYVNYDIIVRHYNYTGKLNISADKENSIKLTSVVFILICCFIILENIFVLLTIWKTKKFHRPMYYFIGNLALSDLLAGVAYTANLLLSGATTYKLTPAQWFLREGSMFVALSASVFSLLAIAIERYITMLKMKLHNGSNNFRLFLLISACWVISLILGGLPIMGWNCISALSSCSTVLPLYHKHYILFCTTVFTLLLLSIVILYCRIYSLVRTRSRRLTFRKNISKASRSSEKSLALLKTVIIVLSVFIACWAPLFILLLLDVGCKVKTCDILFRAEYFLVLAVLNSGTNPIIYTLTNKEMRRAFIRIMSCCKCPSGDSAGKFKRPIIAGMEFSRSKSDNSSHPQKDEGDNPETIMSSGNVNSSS
- Sequence (P32121 whole entry partner, looked up): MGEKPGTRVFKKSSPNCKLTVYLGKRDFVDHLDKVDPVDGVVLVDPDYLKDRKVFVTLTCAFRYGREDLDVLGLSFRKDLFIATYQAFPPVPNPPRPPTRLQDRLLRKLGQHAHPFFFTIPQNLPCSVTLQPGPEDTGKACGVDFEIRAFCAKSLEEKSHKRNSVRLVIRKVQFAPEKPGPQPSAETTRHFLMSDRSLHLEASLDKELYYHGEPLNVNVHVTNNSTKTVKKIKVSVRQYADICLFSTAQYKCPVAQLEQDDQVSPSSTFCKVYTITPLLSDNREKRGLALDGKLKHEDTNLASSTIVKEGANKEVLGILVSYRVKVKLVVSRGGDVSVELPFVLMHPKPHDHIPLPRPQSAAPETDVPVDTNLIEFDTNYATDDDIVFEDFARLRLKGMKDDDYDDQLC
- Assay Text: β-Arrestin2 recruitment assay (PathHunter), S1P1 CHO-K1 cells
- Format: cell-based
- Recorded Conditions: CHO-K1; efficacy (SPAN) normalized to fingolimod; read-out: hS1P1 B-arrestin2 SPAN
Property Measured: Emax

[[record]]
smiles_string = "COc1ccc(-c2cnc(-c3ccc4c(c3)nnn4C(C)C)s2)cc1"
tested_target = "human sphingosine-1-phosphate receptor 1 (S1P1) (Homo sapiens (Human))"
result = "< 75%"

[[record]]
smiles_string = "COc1ccc2oc(-c3ccc4c(c3)nnn4CC(C)C)nc2c1"
tested_target = "human sphingosine-1-phosphate receptor 1 (S1P1) (Homo sapiens (Human))"
result = "< 75%"

[[record]]
smiles_string = "N#Cc1cc(-c2nc(-c3ccc4c(c3)CCC(=O)N4)no2)ccc1NCCF"
tested_target = "human sphingosine-1-phosphate receptor 1 (S1P1) (Homo sapiens (Human))"
result = "> 75%"

[[record]]
smiles_string = "COc1cc(-c2nc(-c3ccc4c(c3)nnn4C(C)C)no2)ccn1"
tested_target = "human sphingosine-1-phosphate receptor 1 (S1P1) (Homo sapiens (Human))"
result = "< 75%"

[[record]]
smiles_string = "COC(=O)Cn1nnc2cc(-c3noc(-c4ccccc4Br)n3)ccc21"
tested_target = "human sphingosine-1-phosphate receptor 1 (S1P1) (Homo sapiens (Human))"
result = "< 75%"


---

Listed below: hS1P1 B-arrestin2 pEC50 values for each entry.
- Tested Target: human sphingosine-1-phosphate receptor 1 (S1P1) (Homo sapiens (Human))
- Assay Text: β-Arrestin2 recruitment assay (PathHunter), S1P1 CHO-K1 cells
- Assay type: cell-based
- Recorded Conditions: β-arrestin2 recruitment, S1P1 CHO-K1 cells
Property Measured: hS1P1 B-arrestin2 pEC50

[[record]]
molecule = "COc1ccccc1-c1noc(-c2ccc3c(c2)nnn3C2CCOCC2)n1 [Compound 231]"
result = "<5"

[[record]]
molecule = "N#Cc1cc(-c2nc(-c3ccc4c(c3)CCC(=O)N4)no2)ccc1NCC(F)(F)F [Compound 472]"
result = ">5"

[[record]]
molecule = "CC(C)n1nnc2cc(-c3nc(-c4ccc(-c5ccccc5)cn4)no3)ccc21 [Compound 9]"
result = "<5"

[[record]]
molecule = "COc1ccccc1-c1noc(-c2ccc3c(c2)nnn3C(C)(C)C)n1 [Compound 207]"
result = ">5"

[[record]]
molecule = "CCC1(CC)CC(=O)c2cc(-c3nnc(-c4ccc5c(c4)nnn5C(C)C)o3)ccc2O1 [Compound 223]"
result = "<5"

[[record]]
molecule = "FC(F)(F)Oc1cccc(-c2nc(-c3ccc4c(c3)nnn4C3CCCC3)no2)c1 [Compound 10]"
result = "<5"

[[record]]
molecule = "CCC1(CC)CC(=O)c2cc(-c3nc(-c4ccc5c(c4)CC(=O)N5)no3)ccc2O1 [Compound 416]"
result = ">5"

[[record]]
molecule = "C=CCn1nnc2cc(-c3nc(-c4ccccc4)no3)ccc21 [Compound 270]"
result = "<5"

[[record]]
molecule = "O=C1CCOc2ccc(-c3nc(-c4cccnc4)no3)cc21 [Compound 102]"
result = "<5"

[[record]]
molecule = "CCC1(CC)CC(=O)c2cc(-c3nc(-c4ccccc4O)no3)ccc2O1 [Compound 187]"
result = "<5"

[[record]]
molecule = "O=C1CCOc2ccc(-c3nc(-c4ccncc4)no3)cc21 [Compound 57]"
result = "<5"

[[record]]
molecule = "CC(C)n1nnc2cc(-c3nc(-c4nccn4C)no3)ccc21 [Compound 569]"
result = "<5"

[[record]]
molecule = "CC1CC(=O)c2ccc(-c3nc(-c4ccncc4)no3)cc2O1 (stereo not drawn) [Compound 536]"
result = ">5"

[[record]]
molecule = "CC(C)n1nnc2cc(-c3ncc(-c4ccc(F)cc4)s3)ccc21 [Compound 37]"
result = "<5"

[[record]]
molecule = "CC1(C)CCC2(CC1)CC(=O)c1cc(-c3nc(-c4ccncc4)no3)ccc1O2 [Compound 254]"
result = "<5"

[[record]]
molecule = "Cc1ccc2oc(-c3ccc4c(c3)nnn4C(C)C)nc2c1 [Compound 419]"
result = ">5"

[[record]]
molecule = "COc1cccc(-c2noc(-c3ccc4c(c3)nnn4C(C)C)n2)n1 [Compound 19]"
result = ">5"

[[record]]
molecule = "CC(C)Nc1ccc(-c2nnc(-c3ccc4ncn(C)c4c3)o2)cc1C#N [Compound 579]"
result = ">5"

